Biological target: HCV NS5B RNA-dependent RNA polymerase (1b-BKΔ55) (Hepatitis C virus genotype 1b, UniProt P26663)
Sequence (P26663 2420-2955, stated change not applied): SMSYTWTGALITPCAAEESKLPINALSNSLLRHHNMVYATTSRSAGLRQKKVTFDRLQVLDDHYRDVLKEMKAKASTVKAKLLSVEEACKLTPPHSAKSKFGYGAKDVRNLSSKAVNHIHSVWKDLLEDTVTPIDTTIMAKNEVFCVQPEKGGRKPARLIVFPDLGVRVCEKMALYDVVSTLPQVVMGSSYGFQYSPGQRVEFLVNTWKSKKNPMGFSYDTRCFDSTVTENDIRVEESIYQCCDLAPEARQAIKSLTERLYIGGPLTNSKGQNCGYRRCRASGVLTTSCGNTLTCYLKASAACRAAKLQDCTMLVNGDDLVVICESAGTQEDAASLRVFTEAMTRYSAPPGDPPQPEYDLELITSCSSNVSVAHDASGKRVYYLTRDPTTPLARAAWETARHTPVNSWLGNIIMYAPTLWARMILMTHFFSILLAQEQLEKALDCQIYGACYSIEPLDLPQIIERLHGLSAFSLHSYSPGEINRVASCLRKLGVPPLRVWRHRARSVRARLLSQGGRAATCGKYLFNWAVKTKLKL
Consider the following compounds; for each one, report its pKi.
Please express pKi as -log10 of the molar concentration.

Entry C#C[C@@]1(O)[C@H](O)[C@@H](COP(=O)(O)OP(=O)(O)OP(=O)(O)O)O[C@H]1n1ccc(=O)[nH]c1=O ; pKi = 7.44

// recorded pKi for CC#C[C@@]1(O)[C@H](O)[C@@H](COP(=O)(O)OP(=O)(O)OP(=O)(O)O)O[C@H]1n1ccc(=O)[nH]c1=O : 7.24

Value of measured pKi for the entry C#C[C@@]1(N)[C@H](O)[C@@H](COP(=O)(O)OP(=O)(O)OP(=O)(O)O)O[C@H]1n1ccc(=O)[nH]c1=O : 5.92

---

System: replicon cells (1b-Con1)
Assay: Cytotoxicity in replicon cells (MTS assay)
Conditions: CC50, MTS assay, three days post dosing
I'd be grateful if you could share measured Cytotoxicity for these entries.

Lab note: measured Cytotoxicity of C#C[C@@]1(O)[C@H](O)[C@@H](COP(=O)(N[C@@H](C)C(=O)OC(C)C)Oc2ccccc2)O[C@H]1n1ccc(=O)[nH]c1=O (single isomer, unassigned) was >100 µM

Entry CC#C[C@]1(O)[C@H](O)[C@@H](COP(=O)(N[C@@H](C)C(=O)OC(C)C)Oc2ccccc2)O[C@H]1n1ccc(=O)[nH]c1=O (single isomer, unassigned) , Cytotoxicity reported as >100 µM

Cytotoxicity for C#C[C@@]1(O)[C@H](OC(=O)C(C)C)[C@@H](COP(=O)(N[C@@H](C)C(=O)OC(C)C)Oc2ccccc2)O[C@H]1n1ccc(=O)[nH]c1=O (single isomer, unassigned) is >100 µM

So for CC(C)OC(=O)[C@H](C)NP(=O)(OC[C@H]1O[C@@H](n2ccc(=O)[nH]c2=O)[C@@](O)(C#CC(F)(F)F)[C@@H]1O)Oc1ccccc1 (stereo partly shown) , the logged Cytotoxicity turned out to be 40.7 µM

Value of Cytotoxicity reported for the compound CC(C)OC(=O)[C@H](C)NP(=O)(OC[C@H]1O[C@@H](n2ccc(=O)[nH]c2=O)[C@@](O)(C#CC2CC2)[C@@H]1O)Oc1ccccc1 (stereo partly shown) is 14.2 µM

The compound CC#C[C@@]1(F)[C@H](O)[C@@H](COP(=O)(N[C@@H](C)C(=O)OC(C)C)Oc2ccccc2)O[C@H]1n1ccc(=O)[nH]c1=O (stereo partly shown) showed Cytotoxicity equal to 74.4 µM

Lab note: C#C[C@@]1(O)[C@@H]2OP(=O)(OC(C)C)OC[C@H]2O[C@H]1n1ccc(=O)[nH]c1=O (single isomer, unassigned) gave Cytotoxicity of >100 µM
